Just for reference, PubChem BioAssay (Tox21) is where these values come from.

test system: thyroid hormone receptor (rat, GH3 cells); experiment: qHTS assay to identify small molecule agonists of the thyroid receptor (TR) signaling pathway (AID 743066); conditions: GH3.TRE-Luc cells, TR agonist luciferase, 24 h; series mostly up to 83.9 µM
Results filed as inconclusive are left out. Activity calls are given as the source filed them. Calls come from the whole dose curve.
property: outcome

For orientation, consider the following solved cases.
molecule: O=C(O)c1ccc2c(c1)C(=O)OC2=O
outcome: inactive

molecule: CC1=CC(=O)NS(=O)(=O)O1
outcome: inactive

molecule: C/C=C1/CC2C=CC1C2 (centres undefined)
outcome: inactive

molecule: COc1ccc(NC(C)=O)cc1N
outcome: inactive

**Query** Could you share which outcome value was measured for Cc1ccc(S(N)(=O)=O)cc1 ?
**Result** inactive

**Query** Now try Cc1ccc2oc(=O)ccc2c1 .
**Result** inactive

**Query** Another molecule to look at: C=C(C)C(=O)Nc1ccc(Cl)c(Cl)c1
**Result** inactive

**Query** Entry OC[C@H]1O[C@@](CO)(O[C@H]2O[C@H](CO)[C@@H](O)[C@H](O)[C@H]2O)[C@@H](O)[C@@H]1O please
**Result** inactive

**Query** Follow-up item: O=C(CC(C(=O)OC1CCCCC1)S(=O)(=O)O)OC1CCCCC1 (centres undefined)
**Result** inactive

**Query** // repeat for CN(C)CCCN and report
**Result** inactive

**Query** Also, COS(C)(=O)=O please.
**Result** inactive

**Query** Can you check COc1ccc2cc([C@H](C)C(=O)O)ccc2c1 next?
**Result** inactive

**Query** Also check C#CCN(C)Cc1ccccc1
**Result** inactive

**Query** Quick one: OCc1cccnc1
**Result** inactive

**Query** And CCOC(=O)NNc1nncc2ccccc12 ?
**Result** inactive

---

Molecular target: Estrogen receptor (Homo sapiens)
Test: qHTS assay to identify small molecule antagonists of the estrogen receptor alpha (ER-alpha) signaling pathway (AID 743069)
Conditions: HEK293 ER-alpha-UAS-bla, beta-lactamase ratio, antagonist mode; series mostly up to 69.4 µM
Description: National Center for Advancing Translational Sciences [NCATS] NIH Chemical Genomics Center [NCGC] U.S. Environmental Protection Agency [EPA] National Institutes of Environmental Health Sciences [NIEHS] National Toxicology Program [NTP] U.S. Food and Drug Administration [FDA] Estrogen receptor (ER), a nuclear hormone receptor, plays an important role in development, metabolic homeostasis and reproduction. […]
Results filed as inconclusive are left out. The source made the active and inactive calls. Calls come from the whole dose curve; as a rule, active = well fitted curve in the direction sought with a large enough effect in the signal ratio in the repeat runs (not every such curve was filed as active); inconclusive = weak or mixed curves, or effect the other way; inactive = no such curve, though single readings can be large or run the other way; the % refers to the signal ratio.
Answer with one of the outcomes active, inactive

**Query** Name the outcome recorded for O=S(=O)(O)c1ccc2ccccc2c1 in the assay.
**Result** inactive

**Query** Queued: CN(C)CCCN
**Result** inactive

**Query** Let us now turn to CCOC(=O)NNc1nncc2ccccc12
**Result** inactive

**Query** What do you have for CCC(O)OC(O)CC (stereo not drawn) ?
**Result** inactive

**Query** What about Cc1ccc2oc(=O)ccc2c1 ?
**Result** inactive

**Query** Follow-up item: OC[C@H]1O[C@@](CO)(O[C@H]2O[C@H](CO)[C@@H](O)[C@H](O)[C@H]2O)[C@@H](O)[C@@H]1O
**Result** inactive

**Query** Try the compound CCN(CC)c1ccc(C(=O)c2ccccc2C(=O)O)c(O)c1
**Result** inactive

**Query** O=C(O)c1ccc2c(c1)C(=O)OC2=O , same question.
**Result** inactive

**Query** Now consider COS(C)(=O)=O .
**Result** inactive

**Query** Note, next up: CC(C)c1ccc(S(=O)(=O)O)cc1
**Result** inactive

**Query** One more compound: CCCCCOC(C)=O
**Result** inactive

**Query** Follow-up item: CC1=C(C)S(=O)(=O)CCS1(=O)=O
**Result** inactive

**Query** Again, but for c1c[nH]cn1
**Result** inactive

**Query** Next: Cc1cc(C)c(C)cc1C
**Result** inactive

**Query** Next entry: CCCCCCOCCO
**Result** inactive

**Query** Try the compound O=[N+]([O-])c1ccc(/C=C/c2ccc([N+](=O)[O-])cc2S(=O)(=O)O)c(S(=O)(=O)O)c1
**Result** inactive

**Query** Follow-up item: COc1cc(Cc2cnc(N)nc2N)cc(OC)c1OC
**Result** inactive

**Query** Could you do the same for CC(=O)c1ccccc1 , please?
**Result** inactive

**Query** Would you mind doing C=C(C)C(=O)Nc1ccc(Cl)c(Cl)c1 as well?
**Result** inactive

**Query** Record: CCCCCCCC(=O)OC
**Result** inactive

**Query** Next: O=P(OC(CCl)CCl)(OC(CCl)CCl)OC(CCl)CCl
**Result** active

**Query** Please answer likewise for Fc1ccc(Br)cc1
**Result** inactive

**Query** Proceed to C=C(C)C(=O)O[C@H]1C[C@@H]2CC[C@@]1(C)C2(C)C
**Result** inactive

**Query** Cool, now CCN(CC)CCCC(C)Nc1ccnc2cc(Cl)ccc12 (stereo not drawn)
**Result** inactive

**Query** What do we get for CC[C@H](C)C(=O)O[C@H]1C[C@@H](C)C=C2C=C[C@H](C)[C@H](CC[C@@H]3C[C@@H](O)CC(=O)O3)[C@H]21 ?
**Result** inactive

**Query** // query: FC(F)(F)c1ccc(Cl)c(Cl)c1
**Result** inactive

**Query** Repeat for the following compound: CC1=CCC2CC1C2(C)C (stereo not drawn)
**Result** inactive

**Query** Ok, now O=c1[nH]c(=O)n([C@H]2C[C@H](O)[C@@H](CO)O2)cc1Br
**Result** inactive

---

experiment: qHTS assay for small molecule disruptors of the mitochondrial membrane potential (AID 720635); conditions: HepG2 mitochondrial membrane potential, Mito-MPS dye ratio; series mostly up to 83.2 µM
Inconclusive results are not listed. Calls of active or inactive are those of the source. The call rests on the fitted dose curve; in most records, active means well fitted inhibition curve with a large enough effect in the signal ratio in the repeat runs; inconclusive means weak or mixed curves, or effect the other way; inactive means flat fitted curve, though single readings scatter; the % refers to the signal ratio.
property: outcome

Completed entries (count: 4):
chem.smiles: CCCCCC/C(C=O)=C\c1ccccc1
property: outcome
result: inactive
//
chem.smiles: CC1=CC(=O)NS(=O)(=O)O1
property: outcome
result: inactive
//
chem.smiles: CCCCCCCCCC
property: outcome
result: inactive
//
chem.smiles: Cc1cccnc1
property: outcome
result: inactive

Let's switch to this molecule now.
**Query** Any idea what outcome was measured for Cc1cccc(O)c1 ?
**Result** inactive

---

assay: Caspase-3/7 induction in HepG2 cells by small molecules, qHTS assay (AID 1346978); conditions: HepG2 caspase-3/7 activation, Caspase-Glo luminescence, 17 h; series mostly up to 92.4 µM; note: nearly all actives have a fitted effect of over 15% in size
Records with an inconclusive call do not appear. Active and inactive are the calls of the source. Calls come from the whole dose curve; as a rule, active = well fitted activation curve with a large enough effect in the repeat runs; inconclusive = weak or mixed curves; inactive = flat fitted curve, though single readings scatter.
property: outcome

molecule: CC(=O)OCC(=O)[C@@]12N=C(C)O[C@@H]1C[C@H]1[C@@H]3CCC4=CC(=O)C=C[C@]4(C)[C@H]3[C@@H](O)C[C@@]12C
outcome: inactive
//
molecule: c1ccc2scnc2c1
outcome: inactive
//
molecule: CCCC(C)=O
outcome: inactive
//
molecule: O=[N+]([O-])c1ccc(/C=C/c2ccc([N+](=O)[O-])cc2S(=O)(=O)O)c(S(=O)(=O)O)c1
outcome: inactive
//
molecule: C=CCOC(=O)c1ccccc1C(=O)OCC=C
outcome: inactive
//
molecule: CCCCC(CC)COC(=O)CCCCC(=O)OCC(CC)CCCC (stereo not drawn)
outcome: inactive
//
molecule: O=C(O)c1ccc(C(=O)O)cc1
outcome: inactive
//
molecule: COc1cc(Cc2cnc(N)nc2N)cc(OC)c1OC
outcome: inactive

**Query** Request the reported outcome associated with C[C@H]1C[C@H]2[C@@H]3CCC4=CC(=O)C=C[C@]4(C)[C@@]3(F)[C@@H](O)C[C@]2(C)[C@@]1(O)C(=O)CO
**Result** inactive

**Query** Field entry: CC1=CC(=O)NS(=O)(=O)O1
**Result** inactive

**Query** And for CN(C)CCC(c1ccc(Cl)cc1)c1ccccn1 (stereo not drawn) ?
**Result** inactive

**Query** Next molecule up: CN(C)CCCN
**Result** inactive

**Query** Would you kindly repeat that for CC1=C(C)S(=O)(=O)CCS1(=O)=O ?
**Result** inactive

**Query** # iterate: C=C(C)C(=O)O[C@H]1C[C@@H]2CC[C@@]1(C)C2(C)C
**Result** inactive

**Query** Oc1cccc2ccccc12 ?
**Result** inactive

**Query** ON=C1CCCCC1 , same question.
**Result** inactive

**Query** Then this molecule: OCCOCCN1CCN(C2=Nc3ccccc3Sc3ccccc32)CC1
**Result** inactive

**Query** And for C#C[C@]1(O)CC[C@H]2[C@@H]3CCC4=CC(=O)CC[C@@H]4[C@H]3CC[C@@]21C ?
**Result** inactive

**Query** Try the molecule CC(=O)c1ccccc1
**Result** inactive

**Query** Try this molecule too: CCCCCOC(C)=O
**Result** inactive

**Query** Please do the same for COc1ccc(NC(C)=O)cc1N as well.
**Result** inactive

**Query** Note, next up: CC(=O)CC(=O)Nc1ccccc1C
**Result** inactive

**Query** Please answer likewise for Nc1cc([N+](=O)[O-])ccc1O
**Result** inactive

**Query** Here is the next molecule: Cc1cc(C)c(C)cc1C
**Result** inactive

**Query** Same question for O=c1[nH]c(=O)n([C@H]2C[C@H](O)[C@@H](CO)O2)cc1Br please.
**Result** inactive

**Query** Check CCCCCC(N)=O too.
**Result** inactive

**Query** And what about the molecule FC(F)(F)c1ccc(Cl)c(Cl)c1 ?
**Result** inactive

**Query** One more molecule: O=C(CC(C(=O)OC1CCCCC1)S(=O)(=O)O)OC1CCCCC1 (stereo not drawn)
**Result** inactive
